Quick list: inhibition at 0.1 µM per entry.
system: 5-HT1D receptor (Homo sapiens)
Construct: expressed in transfected cells
Sequence (P28221 whole entry): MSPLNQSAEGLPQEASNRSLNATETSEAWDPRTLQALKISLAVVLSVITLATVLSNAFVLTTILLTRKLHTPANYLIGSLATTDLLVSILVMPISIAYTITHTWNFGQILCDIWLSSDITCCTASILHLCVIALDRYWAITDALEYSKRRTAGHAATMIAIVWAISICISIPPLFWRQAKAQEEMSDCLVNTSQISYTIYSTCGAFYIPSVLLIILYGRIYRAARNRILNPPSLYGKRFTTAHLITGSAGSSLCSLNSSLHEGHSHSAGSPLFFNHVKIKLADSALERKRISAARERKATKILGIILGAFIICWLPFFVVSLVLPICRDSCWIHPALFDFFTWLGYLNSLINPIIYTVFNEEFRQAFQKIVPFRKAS
test_name: 5-HT1D receptor binding, inhibition of 3H-serotonin binding
condition_set: 100 nM test compound; 3H-serotonin 1 nM; membranes from recombinant cells; 60 minute incubation at 22° C.; read-out: percent inhibition of binding of the radio ligand at the 5-HT1D receptor

compound	inhibition at 0.1 µM
CC(C)n1ccc2ccc(CCN(C)C)cc21	> 90%
CN1CC=C(c2ccc3ccn(-c4ccsc4)c3c2)CC1 [Example 19c]	> 75%
Brc1ccc2ccn(C3CCNCC3)c2c1 [Example 10c, 6-Bromo-1-(4-piperidinyl)-indole]	> 50%
CN1CC=C(c2ccc3ccn(-c4cccnc4)c3c2)CC1 [Example 19d]	> 75%
CN1CC=C(c2ccc3ccn(-c4ccc(F)cc4)c3c2)CC1	> 75%
CN(C)CCc1ccc2ccn(-c3cccnc3)c2c1 [Example 19f]	> 90%
CN1CC=C(c2ccc3ccn(-c4nccs4)c3c2)CC1 [Example 19i]	> 50%
CC(C)n1ccc2ccc(C3=CCN(C)CC3)cc21 [Example 16c]	> 50%
CC(C)n1ncc2ccc(CCN(C)C)cc21	> 90%
CN(C)CCc1ccc2ccn(C3CCOCC3)c2c1 [Example 11b]	> 90%
